System: DLD-1 KLF5 promoter-luciferase reporter, luminescence
Experiment: KLF5 promoter reporter inhibitors, dose response, luminescence, DLD-1 cells, luciferase reporter (AID 1973)
readout_type: pIC50
One number for each entry, as −log10 of the molar value.

{"columns": ["smiles_record", "pIC50"],
 "data": [
  ["COc1cc(/C=C/[N+](=O)[O-])ccc1OCc1cccc(C(=O)O)c1", 5.68]
]}

Hi, could you look up pIC50 for each item in my list?
1. CCCc1ccc(C(=O)O/N=C(\N)c2ccccn2)cc1
2. Cc1ccc(C(=O)O/N=C(\N)c2ccccn2)c(C)c1

Reply:
[6.97, 5.85]

Task item: Please report the recorded pIC50 for CN1CCN(c2ccc(-c3ccc4ccccc4n3)cc2)CC1 .
Reply: 6.78
